# assay.name: reversal of MRP1-mediated doxorubicin resistance, pilot screen, H69AR cells, doxorubicin co-treatment (AID 601)
# test.conditions: H69AR cells + 2 uM doxorubicin, CellTiter-Glo, 72 h; at 10 µM; stronger effect = higher value
differential viability (reversal) values by entry
Report only the number, with the unit % understood.

molecule: O=C1CCCc2c1cc(C(=O)NCc1ccco1)c(=O)n2-c1ccc(Cl)cc1
differential viability (reversal) / %: 13

Prompt: I would be grateful if you could share the reported differential viability (reversal) for COc1cc(NC(=O)C(C)Oc2ccccc2)c(C(=O)O)cc1OC (stereo unspecified) .
Response: 11.7

Prompt: I would be grateful if you could share the reported differential viability (reversal) for Cc1cc(-c2ccccc2)c2c3c(cn2n1)c(=O)n(C)c(=O)n3C .
Response: -0.565

Prompt: I would be grateful if you could share the reported differential viability (reversal) for COc1ccc(-c2cc(C(F)F)n3ncc(C(=O)NCC4CCCO4)c3n2)cc1 (stereo unspecified) .
Response: -3.58

Prompt: I would be grateful if you could share the reported differential viability (reversal) for Cc1ccc(-n2c(=O)c3sccc3n(CC(=O)NCc3ccco3)c2=O)cc1 .
Response: 7.63

Prompt: I would be grateful if you could share the reported differential viability (reversal) for Cc1noc(COc2ccccc2OCC(O)CNC(C)(C)C)n1 (stereo unspecified) .
Response: 7.13

Prompt: I would be grateful if you could share the reported differential viability (reversal) for C#CCNc1c(C)c(C)nc2ncnn12 .
Response: 18.7

Prompt: I would be grateful if you could share the reported differential viability (reversal) for CCN(c1cccc(C)c1)S(=O)(=O)c1ccc2[nH]c(=O)c(=O)[nH]c2c1 .
Response: 1.35

Prompt: I would be grateful if you could share the reported differential viability (reversal) for C=CCNC(=O)CN(c1cccc(Br)c1)S(C)(=O)=O .
Response: 10.9

Prompt: I would be grateful if you could share the reported differential viability (reversal) for CC(=O)Nc1ccc(S(=O)(=O)Nc2nc3n(n2)C(c2ccccc2)CC(=O)N3)cc1 (stereo unspecified) .
Response: 6.67

Prompt: I would be grateful if you could share the reported differential viability (reversal) for CC(=O)NCCn1ccc2ccccc21 .
Response: -3.84

====

viability values by entry
# assay.name: reversal of MRP1-mediated doxorubicin resistance, pilot screen, H69AR cells, doxorubicin co-treatment (AID 601)
# test.conditions: H69AR cells + 2 uM doxorubicin, CellTiter-Glo, 72 h; measured here: viability with 2 uM doxorubicin; at 10 µM; stronger effect = lower value

compound: COc1ccc(OCC(=O)N2CCN(C(=O)Cc3ccccc3)CC2)cc1
value.type: viability
reading: 96.7%
//
compound: CCCS(=O)(=O)N1CCCC(C(=O)N2CCC(Cc3ccccc3)CC2)C1 (stereo not given)
value.type: viability
reading: 97.1%
//
compound: O=C(Cn1nnc2ccccc2c1=O)NC1CCCc2ccccc21 (stereo not given)
value.type: viability
reading: 95.4%

Now look at this entry.
Prompt: I would be grateful if you could share the reported viability for COc1cccc(Oc2ccc(N)cn2)c1 .
Response: 84.4%

====

# assay.name: reversal of MRP1-mediated doxorubicin resistance, pilot screen, H69AR cells, doxorubicin co-treatment (AID 601)
# test.conditions: H69AR cells, CellTiter-Glo, 72 h; compound alone cytotoxicity; at 10 µM
value.type: viability (%)
Report only the number, with the unit % understood.

molecule: CCN(CC)C(=O)CSc1nc2ccc(NC(=O)CSc3nccn3C)cc2s1
viability (%): 91

molecule: CCC(=O)Nc1ccc(NC(=O)c2cccc(OC)c2)nc1
viability (%): 97.8

molecule: COc1ccccc1NC(=O)CSc1nnc(CC(=O)Nc2ccccc2)n1C
viability (%): 91

molecule: COc1ccc(OC)c(-c2nnc(SCC(=O)NC3CCCCC3)o2)c1
viability (%): 98.5

molecule: O=C(c1cccn2c(=O)c3cc(Cl)ccc3nc12)N1CCOCC1
viability (%): 116

molecule: Cn1c(Cc2csc(N)n2)nnc1SCC(=O)NCc1ccccc1
viability (%): 100

Prompt: I would be grateful if you could share the reported viability for CCN(CC)c1ccc(/C=N/n2nnnc2N)c(O)c1 .
Response: 14.4

Prompt: I would be grateful if you could share the reported viability for Cc1ccc(N2C(=O)c3ccccc3C2Nc2cccnc2)nc1 (centres undefined) .
Response: 83.3
